// data source = ChEMBL document CHEMBL2157880

# key: entry, value: MIC
# System: Enterococcus faecalis
# protocol-notes: Antibacterial activity against Enterococcus faecalis 10-6 after 18 to 24 hrs by NCCLS method
# Type: functional
Give your result in µg/mL as a bare value.

Worked examples, 3 compounds total:
structure-smiles-string | MIC (µg/mL)
COc1ccc(CN2CCN(c3cc4c(cc3F)c(=O)c(C(=O)O)cn4C3CC3)CC2)c(Cl)c1OC | 64
O=C(O)c1cn(C2CC2)c2cc(N3CCNCC3)c(F)cc2c1=O | 64
COc1cc(CN2CCN(c3cc4c(cc3F)c(=O)c(C(=O)O)cn4C3CC3)CC2)ccc1OCc1ccccc1 | 64

The measured MIC associated with COc1cc(CN2CCN(c3cc4c(cc3F)c(=O)c(C(=O)O)cn4C3CC3)CC2)c([N+](=O)[O-])cc1OC reads 128

The measured MIC associated with O=C(O)c1cn(C2CC2)c2cc(N3CCN(Cc4ccc5c(c4)OCCO5)CC3)c(F)cc2c1=O reads 32

The measured MIC associated with O=C(O)c1cn(C2CC2)c2cc(N3CCN(Cc4cc5c(cc4[N+](=O)[O-])OCO5)CC3)c(F)cc2c1=O reads 64

The measured MIC associated with O=C(O)c1cn(C2CC2)c2cc(N3CCN(Cc4ccccc4)CC3)c(F)cc2c1=O reads 16

The measured MIC associated with O=C(O)c1cn(C2CC2)c2cc(N3CCN(Cc4ccc5c(c4)OCO5)CC3)c(F)cc2c1=O reads 32

The measured MIC associated with COc1ccc(OC)c(CN2CCN(c3cc4c(cc3F)c(=O)c(C(=O)O)cn4C3CC3)CC2)c1 reads 128

The measured MIC associated with COc1cc(CN2CCN(c3cc4c(cc3F)c(=O)c(C(=O)O)cn4C3CC3)CC2)cc(OC)c1OC reads 64

The measured MIC associated with O=C(O)c1cn(C2CC2)c2cc(N3CCN(Cc4ccc(OCc5ccccc5)cc4)CC3)c(F)cc2c1=O reads 64

The measured MIC associated with COc1ccc(CN2CCN(c3cc4c(cc3F)c(=O)c(C(=O)O)cn4C3CC3)CC2)cc1 reads 32
